Entry source: the supplement of paper PMC10883282

- System: A204
- Test details: relative viability vs DMSO control (72 h) (fraction); higher = more viable cells
- Measurement parameters: 0.1235 µM
Property name: relative viability

Could you share which relative viability value was measured for CNC(=O)c1cc(Oc2ccc(NC(=O)Nc3ccc(Cl)c(C(F)(F)F)c3)c(F)c2)ccn1 ? 0.987

What do you have for COCc1c(-c2cc3cc(C)cc(OC)c3s2)c2c(N)ncnn2c1CN1CCNC(=O)C1 ? 0.827

What about this compound? CCCS(=O)(=O)Nc1ccc(F)c(C(=O)c2c[nH]c3ncc(-c4ccc(Cl)cc4)cc23)c1F 1.07

Do the same for O=C(Cc1ccc(-c2ccc(OCCN3CCOCC3)cc2)cn1)NCc1ccccc1 please 0.458

Cn1cnc2c(F)c(Nc3ccc(Br)cc3F)c(C(=O)NOCCO)cc21 ? 1.02

Another: CC(C)N1CCN(Cc2cnc(-c3cc(-c4cccc5[nH]ccc45)cc4[nH]ncc34)o2)CC1 0.956

Field entry: Nc1cc(C(F)(F)F)c(-c2cc(N3CCOCC3)nc(N3CCOCC3)n2)cn1 0.879

Let us now turn to CO[C@H]1C[C@@H]2CC[C@@H](C)[C@@](O)(O2)C(=O)C(=O)N2CCCC[C@H]2C(=O)O[C@H]([C@H](C)C[C@@H]2CC[C@@H](OP(C)(C)=O)[C@H](OC)C2)CC(=O)[C@H](C)/C=C(\C)[C@@H](O)[C@@H](OC)C(=O)[C@H](C)C[C@H](C)/C=C/C=C/C=C/1C 0.576

Same thing, different compound: CC1(C)CNc2cc(NC(=O)c3cccnc3NCc3ccncc3)ccc21 0.76

Continue with COc1cc2nccc(Oc3ccc(NC(=O)Nc4cc(C)on4)c(Cl)c3)c2cc1OC 0.504
